Target: T1, rat α-CGRP (1-37) (rat, C-terminal amide; N-terminal biotin when captured on the SA chip)
T1 construct: also called rat α (1-37); α-rat
T1 peptide: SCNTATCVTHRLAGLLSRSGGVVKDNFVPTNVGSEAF
Test: Biacore, 37°C, Fab over CGRP on SA chip
Catalogue of binders with associated koff
Give the value in s⁻¹ but do not write s⁻¹ after it.

Past entries and their recorded results:
[[record]]
binder = "G1 variant M34 Fab (Fab, V domains shown, Fab; constant domains as m1) VH: EVQLVESGGGLVQPGGSLRLSCAASGFTFSNYWISWVRQAPGKGLEWVAEIRSKSDNTATHYAEAVKGRFTISRDNAKNSLYLQMNSLRAEDTAVYYCTVYFDYGLAIQNYWGQGTLVTVSS VL: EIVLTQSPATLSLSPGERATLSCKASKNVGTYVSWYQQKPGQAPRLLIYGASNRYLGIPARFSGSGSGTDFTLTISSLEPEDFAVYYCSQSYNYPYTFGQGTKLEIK"
assay_value = 0.00217

[[record]]
binder = "G1 variant M64 Fab (Fab, V domains shown, Fab; constant domains as m1) VH: EVQLVESGGGLVQPGGSLRLSCAASGFTFSNYWISWVRQAPGKGLEWVAEIRSKSDNVATHYAEAVKGRFTISRDNAKNSLYLQMNSLRAEDTAVYYCTVYFDYGLAIQNYWGQGTLVTVSS VL: EIVLTQSPATLSLSPGERATLSCKASKNVGTYVSWYQQKPGQAPRLLIYAASNRYLGIPARFSGSGSGTDFTLTISSLEPEDFAVYYCSQSYNYPYTFGQGTKLEIK"
assay_value = 0.0234


Here's the next entry for you.
Data request: Which value of koff has been reported for G1 variant M16 Fab (Fab, V domains shown, Fab; constant domains as m1) VH: EVQLVESGGGLVQPGGSLRLSCAASGFTFSNYWISWVRQAPGKGLEWVAEIRSESDASATHYAEAVKGRFTISRDNAKNSLYLQMNSLRAEDTAVYYCTSYFDYGLAIQNYWGQGTLVTVSS VL: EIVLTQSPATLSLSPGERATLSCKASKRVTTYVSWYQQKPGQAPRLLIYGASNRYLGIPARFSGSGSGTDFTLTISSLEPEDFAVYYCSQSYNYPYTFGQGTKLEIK in the records?
Data returned: 0.000996
